For each of the compounds below, state its DC50.
target: GSPT1 (Homo sapiens, UniProt P15170+Q96SW2); test: HiBiT degradation assay, GSPT1, Procedure A; type: cell-based; set-up: HiBit-GSPT1 KI HEK293(LgBit) Cells; host or cells: HEK293(LgBit) knock-in cells; conditions: six hours
Sequence (P15170 whole entry): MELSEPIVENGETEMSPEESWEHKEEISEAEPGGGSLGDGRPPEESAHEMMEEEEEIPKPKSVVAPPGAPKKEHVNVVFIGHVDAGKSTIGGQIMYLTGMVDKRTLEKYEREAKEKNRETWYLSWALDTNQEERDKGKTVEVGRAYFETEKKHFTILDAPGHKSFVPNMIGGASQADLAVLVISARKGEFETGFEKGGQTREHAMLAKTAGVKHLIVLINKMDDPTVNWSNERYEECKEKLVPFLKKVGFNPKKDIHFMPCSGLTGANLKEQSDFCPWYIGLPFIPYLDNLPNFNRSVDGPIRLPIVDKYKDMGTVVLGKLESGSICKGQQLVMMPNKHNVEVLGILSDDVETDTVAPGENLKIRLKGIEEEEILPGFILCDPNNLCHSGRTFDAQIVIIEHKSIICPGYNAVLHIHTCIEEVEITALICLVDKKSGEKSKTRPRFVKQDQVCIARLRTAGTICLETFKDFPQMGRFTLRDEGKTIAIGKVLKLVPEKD
Sequence (Q96SW2 whole entry): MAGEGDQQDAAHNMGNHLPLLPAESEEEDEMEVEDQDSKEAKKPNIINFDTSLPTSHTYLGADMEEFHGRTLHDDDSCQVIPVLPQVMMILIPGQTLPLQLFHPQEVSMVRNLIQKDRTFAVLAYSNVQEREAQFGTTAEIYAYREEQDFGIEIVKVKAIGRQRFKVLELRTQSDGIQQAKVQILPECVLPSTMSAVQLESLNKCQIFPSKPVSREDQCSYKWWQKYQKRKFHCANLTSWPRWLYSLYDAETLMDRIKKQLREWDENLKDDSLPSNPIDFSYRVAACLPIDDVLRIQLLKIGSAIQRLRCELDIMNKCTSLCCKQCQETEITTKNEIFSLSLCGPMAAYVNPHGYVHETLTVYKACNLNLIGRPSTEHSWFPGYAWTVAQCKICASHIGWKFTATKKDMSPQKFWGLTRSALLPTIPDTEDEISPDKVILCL
Sequence (Q16531 whole entry partner): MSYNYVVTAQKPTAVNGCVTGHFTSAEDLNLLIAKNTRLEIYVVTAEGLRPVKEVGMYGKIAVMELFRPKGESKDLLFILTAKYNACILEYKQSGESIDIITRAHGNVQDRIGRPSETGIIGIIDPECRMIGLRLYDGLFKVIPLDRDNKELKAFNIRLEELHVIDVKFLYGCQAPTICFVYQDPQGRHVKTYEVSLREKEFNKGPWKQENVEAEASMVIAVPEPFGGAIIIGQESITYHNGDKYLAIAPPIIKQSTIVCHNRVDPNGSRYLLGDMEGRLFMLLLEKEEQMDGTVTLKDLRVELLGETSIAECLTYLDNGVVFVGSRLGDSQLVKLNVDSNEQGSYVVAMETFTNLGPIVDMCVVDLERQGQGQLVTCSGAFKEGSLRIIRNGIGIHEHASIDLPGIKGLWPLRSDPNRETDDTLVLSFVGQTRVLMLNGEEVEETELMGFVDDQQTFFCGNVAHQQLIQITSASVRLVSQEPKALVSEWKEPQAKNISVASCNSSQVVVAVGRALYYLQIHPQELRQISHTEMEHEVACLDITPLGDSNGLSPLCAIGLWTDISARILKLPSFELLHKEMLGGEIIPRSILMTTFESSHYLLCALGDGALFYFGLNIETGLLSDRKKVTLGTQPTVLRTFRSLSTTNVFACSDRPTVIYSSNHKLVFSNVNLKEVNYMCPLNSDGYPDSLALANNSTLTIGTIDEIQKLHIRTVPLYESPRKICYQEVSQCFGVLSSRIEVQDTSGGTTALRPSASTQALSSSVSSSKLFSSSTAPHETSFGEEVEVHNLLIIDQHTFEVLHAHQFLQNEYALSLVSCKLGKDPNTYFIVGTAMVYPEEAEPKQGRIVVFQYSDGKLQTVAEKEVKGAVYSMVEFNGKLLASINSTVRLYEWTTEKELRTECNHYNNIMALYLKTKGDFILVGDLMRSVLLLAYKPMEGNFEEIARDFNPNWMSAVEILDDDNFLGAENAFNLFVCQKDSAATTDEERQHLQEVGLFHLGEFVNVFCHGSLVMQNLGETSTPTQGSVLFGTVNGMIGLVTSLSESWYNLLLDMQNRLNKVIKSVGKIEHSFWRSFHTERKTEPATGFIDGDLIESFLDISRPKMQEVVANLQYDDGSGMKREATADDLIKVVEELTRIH

q: # query: DC50 of entry Cn1ncc(-c2ccc3c(c2)CN(C2CCC(=O)NC2=O)C3=O)c1-c1cncc(OCc2ccccc2)c1 (stereo not shown)
a: ≥ 25 nM

q: # query: DC50 of entry Cn1ncc(-c2ccc3c(c2)CN(C2CCC(=O)NC2=O)C3=O)c1-c1ccc2c(c1)OC(F)(F)O2 (stereo not shown) [Example 542]
a: < 25 nM

q: # query: DC50 of entry CC(C)c1nc(-c2ccc3c(c2)CN(C2CCC(=O)NC2=O)C3=O)c(-c2cncnc2)n1C (stereo not shown)
a: ≥ 25 nM

q: # query: DC50 of entry Cn1ncc(-c2ccc3c(c2)CN(C2CCC(=O)NC2=O)C3=O)c1-c1ccc(=O)n(C)c1 (stereo not shown)
a: ≥ 25 nM

q: # query: DC50 of entry Cn1cnc(-c2ccc3c(c2)CN(C2CCC(=O)NC2=O)C3=O)c1-c1ccc2nc[nH]c2c1 (stereo not shown)
a: ≥ 25 nM

q: # query: DC50 of entry Cn1ncc(-c2ccc3c(c2)CN(C2CCC(=O)NC2=O)C3=O)c1-c1cnc2c(ccn2C)c1 (stereo not shown)
a: ≥ 25 nM

q: # query: DC50 of entry Cn1nc(-c2ccc3c(c2)CN(C2CCC(=O)NC2=O)C3=O)nc1C1CCCCC1 (stereo not shown)
a: ≥ 25 nM

q: # query: DC50 of entry Cn1ccc(-c2c(-c3ccc4c(c3)CN(C3CCC(=O)NC3=O)C4=O)ncn2C)c1 (stereo not shown)
a: < 25 nM

q: # query: DC50 of entry Cn1ncc(-c2ccc3c(c2)CN(C2CCC(=O)NC2=O)C3=O)c1-c1ccc2sccc2c1 (stereo not shown)
a: ≥ 25 nM

q: # query: DC50 of entry COc1cccc(-c2nc(-c3ccc4c(c3)CN(C3CCC(=O)NC3=O)C4=O)cn2C)c1 (stereo not shown)
a: < 25 nM

q: # query: DC50 of entry Cn1cc(-c2ccc3c(c2)CN(C2CCC(=O)NC2=O)C3=O)nc1-c1ccc(C2CCCCC2)cc1 (stereo not shown)
a: < 25 nM

q: # query: DC50 of entry Cn1nc(-c2ccc3c(c2)CN(C2CCC(=O)NC2=O)C3=O)cc1C1CCC(F)(F)CC1 (stereo not shown)
a: ≥ 25 nM

q: # query: DC50 of entry Cn1ncc(-c2ccc3c(c2)CN(C2CCC(=O)NC2=O)C3=O)c1-c1cnn(C2CCC2)c1 (stereo not shown)
a: < 25 nM

q: # query: DC50 of entry COc1cc(-c2nc(-c3ccc4c(c3)CN(C3CCC(=O)NC3=O)C4=O)cn2C)ccc1Cl (stereo not shown)
a: < 25 nM

q: # query: DC50 of entry CC(C)n1nc(-c2ccc3c(c2)CN(C2CCC(=O)NC2=O)C3=O)nc1-c1ccccc1 (stereo not shown)
a: ≥ 25 nM

q: # query: DC50 of entry Cn1ncc(-c2ccc3c(c2)CN(C2CCC(=O)NC2=O)C3=O)c1-c1cc[nH]n1 (stereo not shown)
a: ≥ 25 nM

q: # query: DC50 of entry Cn1ncc(-c2ccc3c(c2)CN(C2CCC(=O)NC2=O)C3=O)c1-c1cccc(-n2cccn2)c1 (stereo not shown)
a: ≥ 25 nM

q: # query: DC50 of entry Cn1cnc(-c2ccc3c(c2)CN(C2CCC(=O)NC2=O)C3=O)c1-c1ccc2sccc2c1 (stereo not shown)
a: < 25 nM

q: # query: DC50 of entry Cn1cnc(-c2ccc3c(c2)CN(C2CCC(=O)NC2=O)C3=O)c1-c1ccc2nccnc2c1 (stereo not shown)
a: ≥ 25 nM

q: # query: DC50 of entry Cc1ccc(-c2nc(-c3ccc4c(c3)CN(C3CCC(=O)NC3=O)C4=O)cn2C)cc1 (stereo not shown)
a: < 25 nM

q: # query: DC50 of entry COc1ccc(-c2c(-c3ccc4c(c3)CN(C3CCC(=O)NC3=O)C4=O)cnn2C(F)F)cc1F (stereo not shown)
a: ≥ 25 nM

q: # query: DC50 of entry COc1ccc(-c2c(-c3ccc4c(c3)CN(C3CCC(=O)NC3=O)C4=O)cnn2C(F)F)c(Cl)c1 (stereo not shown)
a: < 25 nM

q: # query: DC50 of entry CCCCc1ccc(-c2nc(-c3ccc4c(c3)CN(C3CCC(=O)NC3=O)C4=O)cn2C)cc1 (stereo not shown)
a: < 25 nM

q: # query: DC50 of entry Cn1cnc(-c2ccc3c(c2)CN(C2CCC(=O)NC2=O)C3=O)c1-c1cncc(OCc2ccccc2)c1 (stereo not shown)
a: < 25 nM

q: # query: DC50 of entry Cn1cnc(-c2ccc3c(c2)CN(C2CCC(=O)NC2=O)C3=O)c1-c1cccc(F)c1 (stereo not shown)
a: < 25 nM

q: # query: DC50 of entry Cc1c(-c2ccc3c(c2)CN(C2CCC(=O)NC2=O)C3=O)nc(C2CCOCC2)n1C (stereo not shown)
a: < 25 nM

q: # query: DC50 of entry Cn1cnc(-c2ccc3c(c2)CN(C2CCC(=O)NC2=O)C3=O)c1-c1cnc(N)nc1 (stereo not shown)
a: ≥ 25 nM

q: # query: DC50 of entry Cc1ncc(-c2c(-c3ccc4c(c3)CN(C3CCC(=O)NC3=O)C4=O)nc(C3CC3)n2C)cn1 (stereo not shown)
a: ≥ 25 nM

q: # query: DC50 of entry Cn1ncc(-c2ccc3c(c2)CN(C2CCC(=O)NC2=O)C3=O)c1-c1ccnnc1 (stereo not shown)
a: ≥ 25 nM

q: # query: DC50 of entry Cc1ncccc1-c1c(-c2ccc3c(c2)CN(C2CCC(=O)NC2=O)C3=O)cnn1C (stereo not shown)
a: ≥ 25 nM

q: # query: DC50 of entry Cc1nc2ccc(-c3c(-c4ccc5c(c4)CN(C4CCC(=O)NC4=O)C5=O)cnn3C)cc2[nH]1 (stereo not shown)
a: ≥ 25 nM

====

For each of the compounds below, state its DC50.
biological target: GSPT1 (Homo sapiens, UniProt P15170+Q96SW2); test: HiBiT degradation assay, GSPT1, Procedure A; assay type: cell-based; design: HiBit-GSPT1 KI HEK293(LgBit) Cells; host or cells: HEK293(LgBit) knock-in cells; conditions: six hours incubation

q: Form field: DC50 recorded for Cc1csc(-c2c(-c3ccc4c(c3)CN(C3CCC(=O)NC3=O)C4=O)cnn2C)c1 (stereo not drawn) with GSPT1 (Homo sapiens, UniProt P15170+Q96SW2) (enter value)
a: ≥ 0.025 µM

q: Form field: DC50 recorded for Cc1ccc(-c2c(-c3ccc4c(c3)CN(C3CCC(=O)NC3=O)C4=O)ncn2C)cc1F (stereo not drawn) with GSPT1 (Homo sapiens, UniProt P15170+Q96SW2) (enter value)
a: < 0.025 µM

q: Form field: DC50 recorded for Cc1ccc(-c2c(-c3ccc4c(c3)CN(C3CCC(=O)NC3=O)C4=O)cnn2C)cc1CO (stereo not drawn) with GSPT1 (Homo sapiens, UniProt P15170+Q96SW2) (enter value)
a: ≥ 0.025 µM

====

Molecular target: CK1α (Homo sapiens, UniProt P48729+Q96SW2)
Construct: CSNK1A1-HiBit KI HEK293(LgBit) Cells; host or cells: HEK293(LgBit) knock-in cells
Sequence (P48729 whole entry, one chain of several): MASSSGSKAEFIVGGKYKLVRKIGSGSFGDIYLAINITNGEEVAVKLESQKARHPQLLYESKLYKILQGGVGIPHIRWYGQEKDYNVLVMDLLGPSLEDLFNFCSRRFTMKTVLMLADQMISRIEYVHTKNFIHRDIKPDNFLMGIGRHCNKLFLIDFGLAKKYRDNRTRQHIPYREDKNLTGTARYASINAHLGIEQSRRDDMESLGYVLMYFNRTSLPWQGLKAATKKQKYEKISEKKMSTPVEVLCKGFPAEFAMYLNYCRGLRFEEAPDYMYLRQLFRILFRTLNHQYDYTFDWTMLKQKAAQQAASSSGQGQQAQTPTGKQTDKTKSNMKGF
Test: HiBiT degradation assay, CK1α, Procedure A
Format: cell-based
Settings: six hours incubation
Protocol: Compounds were spotted onto Cornin 384-Well, Cell Culture-Treated, Flat-Bottom, Low Flange Microplate (Fisher Scientific, Catalog #07-201-013) using a Tecan D300e digital dispenser. […] Cells were dissociated from tissue 182 cm^2 Tissue Culture Flask (CellTreat Catalog #229351) by washing the cells with PBS (Fisher Scientific Catalog #BP3994) followed by dissociation with Trypsin-EDTA (0.25%) (Thermo Scientific Catalog #25200056). […] Cell density was determined using a Denovix CellDrop BF cell counter. […]
PROPERTY NAME: CK1α Ymin

Cn1c(C2CC2)nc(-c2ccc3c(c2)CN(C2CCC(=O)NC2=O)C3=O)c1-c1ccncc1 (centres unmarked) ... C (C = 0-10% remaining)
COc1ccc(-c2c(-c3ccc4c(c3)CN(C3CCC(=O)NC3=O)C4=O)ncn2C)cc1F (centres unmarked) ... C (C = 0-10% remaining)

====

target: GSPT1 (Homo sapiens, UniProt P15170+Q96SW2); assay: HiBiT degradation assay, GSPT1, Procedure A; format: cell-based; parameters: HiBit-GSPT1 KI HEK293(LgBit) Cells; host or cells: HEK293(LgBit) knock-in cells; details: six hours
PROPERTY NAME: DC50

q: # query: DC50 of entry COc1cc(-c2nc(-c3ccc4c(c3)CN(C3CCC(=O)NC3=O)C4=O)cn2C)ccc1F (stereo not shown)
a: < 25 nM

q: # query: DC50 of entry Cn1cnc(-c2ccc3c(c2)CN(C2CCC(=O)NC2=O)C3=O)c1-c1cncnc1 (stereo not shown)
a: ≥ 25 nM

q: # query: DC50 of entry COc1ccc2cc(-c3c(-c4ccc5c(c4)CN(C4CCC(=O)NC4=O)C5=O)ncn3C)ccc2c1 (stereo not shown)
a: < 25 nM

q: # query: DC50 of entry Cn1cnc(-c2ccc3c(c2)CN(C2CCC(=O)NC2=O)C3=O)c1C1CCOC1 (stereo not shown)
a: ≥ 25 nM

Sourced from patent US20240158370A1
